Origin of the recorded values: ChEMBL document CHEMBL1159032

procedure-text: Clearance in Wistar rat at 4 mg/kg/hr, iv
Assay type: ADME, organism-based
Design: route intravenous
condition-summary: in vivo
experimental-readout: clearance

- C=C1C[C@@]23CC[C@H]4[C@@](C)(CCC[C@@]4(C)C(=O)O[C@@H]4O[C@H](CO)[C@@H](O)[C@H](O)[C@H]4O)[C@@H]2CC[C@]1(O[C@@H]1O[C@H](CO)[C@@H](O)[C@H](O)[C@H]1O[C@@H]1O[C@H](CO)[C@@H](O)[C@H](O)[C@H]1O)C3 [STEVIOSIDE]: 7.21 mL/min/kg

---

procedure-text: Clearance in Wistar rat at 8 mg/kg/hr, iv
Assay type: ADME, organism-based
Design: route intravenous
condition-summary: in vivo
experimental-readout: clearance (mL/min/kg)

- C=C1C[C@@]23CC[C@H]4[C@@](C)(CCC[C@@]4(C)C(=O)O[C@@H]4O[C@H](CO)[C@@H](O)[C@H](O)[C@H]4O)[C@@H]2CC[C@]1(O[C@@H]1O[C@H](CO)[C@@H](O)[C@H](O)[C@H]1O[C@@H]1O[C@H](CO)[C@@H](O)[C@H](O)[C@H]1O)C3 [STEVIOSIDE]: 9.63

---

procedure-text: Clearance in Wistar rat at 16 mg/kg/hr, iv
Format: ADME, organism-based
Parameters: route intravenous
condition-summary: in vivo
experimental-readout: clearance

* C=C1C[C@@]23CC[C@H]4[C@@](C)(CCC[C@@]4(C)C(=O)O[C@@H]4O[C@H](CO)[C@@H](O)[C@H](O)[C@H]4O)[C@@H]2CC[C@]1(O[C@@H]1O[C@H](CO)[C@@H](O)[C@H](O)[C@H]1O[C@@H]1O[C@H](CO)[C@@H](O)[C@H](O)[C@H]1O)C3 [STEVIOSIDE] | 12.5 mL/min/kg
